melting point by entry:

Sample records with melting point:
| Compound | Observed Result |
| --- | --- |
| COc1cn(-c2ccc(-n3cccn3)cc2F)nc(C(=O)N(C)OC)c1=O | 187 to 189 °C |
| CC(C)(C)OC(=O)C1CCCN2CC(CBr)C(=O)N12 (stereo unspecified) | 88 to 89 °C |
| O=C(c1ccc(OC2CCCCC2N2CCCC2)c(F)c1)c1c(-c2ccc(OCCN3CCCC3)cc2)sc2cc(OCc3ccccc3)ccc12 (stereo unspecified) | 47 to 51 °C |
| CC(C)(NCCCn1cnc(CO)c1)c1ccc(-c2ccccc2)cc1 | 128 to 130 °C |
| CSCCCN1C(=O)C(NC(=O)c2cc3ccccc3[nH]2)N=C(c2ccccc2)c2ccccc21 (racemic) | 216 to 221 °C |

Q: Give the measured melting point of "O=C(OCP(=O)(C1CCCCC1)C1CCCCC1)c1ccc(C(=O)OCP(=O)(C2CCCCC2)C2CCCCC2)cc1" .
A: 226 to 228 °C

Q: Same for Cc1nc(C)n(CCOCC2=C(C(=O)OC(C)C)C(c3ccccc3Cl)C(C(=O)Nc3ccccn3)=CN2)c1C (stereo unspecified)
A: 180 to 182 °C

Q: Quick one: CCCC(=O)NN=C(C)C1CCC=C(C)O1 (stereo unspecified)
A: 72.8 °C

* * *

Value Kind: melting point

Completed entries (count: 5):
| Chem Smiles | Observed Result |
| --- | --- |
| CC(=O)CSc1cc(C(C)(C)C)c(O)c(C(C)(C)C)c1 | 105 to 106 °C |
| Cc1c(CC(=O)O)c(=O)oc2cc(O)c(O)c([N+](=O)[O-])c12 | > 350 °C |
| COC(=O)Nc1nc(OC)nc(OC)n1 | 118 to 122 °C |
| CCOC(=O)c1ncn2c(-c3ccccc3)ccnc12 | 200 to 204 °C |
| CCOC(=O)c1cc(C(=O)c2ccccc2Cl)c(-n2c(C)nnc2CNC(=O)c2cc3ccccc3[nH]2)s1 | 135 to 140 °C |

Q: Would you kindly share the measured melting point for "N#Cc1c(N)oc2c1CCCC2" ?
A: 179 °C

Q: Subsequent entry: "CCOC(=O)Cn1c(=O)[nH]c(=O)c2ccccc21"
A: 249 to 250 °C

Q: Same for "C=CCN(C(=O)C(C#N)=CNC(=N)N1CC(C)(C)NC1=O)c1cccc(C(F)(F)F)c1"
A: 184 to 185 °C

* * *

Catalogue of melting point values

# example entries with known answers
| Compound | melting point |
| --- | --- |
| CCN(CC)C1CCN(c2ccc(C(C)=O)cc2)CC1 | 125 to 127 °C |
| CC(C)N1CCc2ccc(C(=O)CCC(=O)N3CCC(c4ccc(Cl)cc4)CC3)cc2CC1 | 139 to 140 °C |
| Cc1ccc(C(=O)NCc2ccccc2)cc1-c1nc(NCCN(C)C(=O)OC(C)(C)C)nc2c1CNC(=O)N2c1c(F)cccc1F | 160 to 163 °C |
| COC(=O)C1(C)Cc2c([nH]c3ccc(OC)cc23)C(c2ccccc2)N1 (centres undefined) | 172 to 175 °C |

Q: Item "Cc1ccc(S(=O)(=O)n2cc(I)nc2C)cc1" has what recorded melting point?
A: 112 to 114 °C

Q: Query "CNc1c(C2=CC(C)(C)Oc3ccc(C#N)cc32)c(=O)c1=O" next
A: 193 to 194 °C

* * *

Value Kind: melting point

| Molecule | Value Kind | Observed Result |
| --- | --- | --- |
| COC(=O)[C@@H](N=[N+]=[N-])[C@@H](O)c1ccccc1 | melting point | 40 to 41 °C |
| CC(C)=C1OC(=O)N(c2ccc(C)cc2)C1=O | melting point | 136 °C |
| O=C(O)c1cnn(-c2ccc(Cl)cc2)c1C1CC1 | melting point | 186 to 187 °C |
| CCC1CCc2c(sc3cc(N)ccc3c2=O)C1 (stereo unspecified) | melting point | 187 °C |
| Cc1cc(C#N)c2c(c1C)C(=O)CC2 | melting point | 160 to 163 °C |

Q: Would you mind telling me what melting point value was observed for "CCCOc1ccccc1-c1nc2c(CCC)nn(C)c2c(=O)[nH]1" ?
A: 115 to 116 °C

* * *

Below, each entry is listed with its recorded melting point.

Record excerpt, results attached:
| Molecule | melting point |
| --- | --- |
| Oc1ccc2c(c1)CC(NCC(O)c1ccccc1)CC2 (stereo not given) | 157 to 159 °C |
| CCCCNC(=O)N(C(=O)NCCCC)c1c(OC(=O)N(CC)CC)nc(C)c2cc(OC)c(OC)cc12 | 138 to 140 °C |
| CS(=O)(=O)NNc1ccnc2c(NC(=O)c3c(Cl)cccc3Cl)cccc12 | 156 to 164 °C |
| CC(c1oc2ccccc2c(=O)c1-c1cccc(F)c1)n1nc(-c2cccc(OC(F)F)c2)c2c(N)ncnc21 (stereo not given) | 176 to 179 °C |
| O=C(O)c1ccc(NCC=C(c2ccc(Cl)cc2)c2ccc(Cl)cc2)cc1 | 231 to 235 °C |

Q: So what does the record say about melting point for O=C(O)Cc1ccc2c(c1)CC(CNS(=O)(=O)c1ccccc1)C2 (stereo not given) ?
A: 140 to 141 °C

Q: "Cc1nn(-c2cc(O)c(Cl)cc2F)c(C)c1[N+](=O)[O-]" ?
A: 157 to 158 °C

Q: And what about the molecule "CCOc1cc2c(c(Cl)c1O)Sc1ccccc1N2" ?
A: 186 to 189 °C

Q: Then what about the molecule COCC1CN(c2ccc3cc(OCc4ccccc4)ccc3c2)C(=O)O1 (stereo not given) ?
A: 150 °C

Q: Similarly, "Clc1ccc2c(c1)oc1cc(OCCn3ccnc3)ccc12" ?
A: 150 to 151 °C

Q: Repeat with "COc1cccc2c1nc(C(F)F)n2-c1nc(Nc2cccnc2)nc(N2CCOCC2)n1"
A: 221 to 223 °C

* * *

Quick list: melting point per entry.

Q: Reported melting point for "CCCCCCCCCCCCCCC(=O)C(=O)N[C@@H](CCCC)C(=O)NCC(=O)OC" : what is it?
A: 65 to 67 °C

Q: // same read-out, input: "CC(=O)Nc1ccc(C=CC2=NNC(=O)SC2)cc1"
A: 235 to 240 °C

Q: Try this compound next: "S=C=Nc1ccc2oc(-c3ccco3)nc2c1"
A: 135 to 137 °C

Q: Now consider "Cc1nn(C)c(N)c1C(=O)Nc1ccccc1F" .
A: 101 to 103 °C

Q: And then "CCOC(=O)c1c(-c2ccc(OC)c(OC)c2)c2cc(C)ccc2[nH]c1=O" , what is it?
A: 220 to 221 °C

Q: Then this compound: "Cc1nn(CC(=O)O)cc1C(=O)Nc1ccc(OCC(C)(C)C)c(C#N)c1"
A: 234 to 245 °C

Q: Please do the same for "C#CC(CC)(CC)NC(N)=O" as well.
A: 108 °C

Q: Try this compound too: "C#Cc1cccc(-c2cccnc2F)c1"
A: 45 to 47 °C

* * *

The following compounds are shown together with reported melting point values.

In the examples that follow, each entry is paired with its recorded melting point.
| Compound | melting point |
| --- | --- |
| COC(=O)c1cc2cc(C3OCCO3)ccc2[nH]1 | 71 to 72 °C |
| COc1cc(C(=O)N2CCC(CCN3CCCN(c4nc5ccccc5n4CCCC(C)=O)CC3)(c3ccccc3)C2)cc(OC)c1OC (stereo not given) | 95 to 112 °C |
| COC(C)=CC(=O)NC1CCCC1 | 94 °C |
| O=[N+]([O-])c1ccc(OC2SCC(O)C(O)C2O)cc1 (stereo not given) | 130 to 132 °C |
| CNC(=NC#N)NCCSCc1csc(NC(N)=NC(=O)c2ccccc2)n1 | 179 to 181 °C |
| Nc1cccc(CCCOCCCCCCNCC(O)c2cc(Cl)c(N)c(Cl)c2)n1 (stereo not given) | 62 to 65 °C |

Now for the compound whose melting point we want.
Q: Which melting point reading was recorded for the compound "COC(=O)c1c(Cl)cc(Cl)c2cc(Cl)ccc12" ?
A: 110 to 112 °C

* * *

Quick list: melting point per entry.

Field: example entries. Status: answers known.
| Molecule | melting point |
| --- | --- |
| CC(=O)OCc1nc(C(C)C)c(Sc2cc(Cl)cc(Cl)c2)n1Cc1ccncc1 | 133 to 135 °C |
| Cn1cc(C=CC(=O)NC2CC2)c([N+](=O)[O-])n1 | 183 to 185 °C |
| Cc1cccc(C#C[C@@]2(O)CCC[C@@H](NC(=O)c3ccco3)C2)c1 | 139 to 142 °C |
| Cc1ccc(CCc2n[nH]c3c2c(=O)n(-c2ccccc2)c2ncccc32)cc1 | 264 to 265 °C |
| CCOc1cc(C2COCCC2NC(=O)c2ccc(C(=O)N(C(C)C)C(C)C)cc2)ccc1OC (stereo not given) | 166 to 168 °C |
| COC(=O)CN(NC(N)=O)c1ccc(OC)c(C)c1 | 174 to 176 °C |

Q: What measured melting point goes with "Cc1ccc2c(c1)c(Cc1nc3c(F)c(F)cc(F)c3s1)cn2CC(=O)O" ?
A: 131 to 133 °C

Q: Next entry: "Cn1c(C#N)ccc1-c1ccc2c(c1)C1(CCCCC1)C(=S)N2"
A: 269 to 272 °C

Q: // next record "COc1ccc(-n2nc(C(F)(F)F)nc2-c2ccc(S(C)(=O)=O)cc2)cc1"
A: 156 °C

Q: Also "ON=Cc1ccncc1" , if possible.
A: 180 to 182 °C
